- MEASURED_ON: T1, monkey antigen protein (monkey CD112R, Uniprot ID: A0A2K5WVV8) (monkey, UniProt A0A2K5WVV8 41-171)
- T1 sequence: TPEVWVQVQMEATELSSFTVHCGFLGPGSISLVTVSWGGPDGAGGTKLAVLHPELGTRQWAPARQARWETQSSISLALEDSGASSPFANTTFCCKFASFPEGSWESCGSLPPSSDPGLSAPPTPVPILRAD
- TEST_DETAILS: ELISA, monkey antigen protein (as Example 6.1)
Reported pEC50 values follow for various binders
The quantity pEC50 is defined as the negative base-10 logarithm of the molar concentration.

Some binders with known pEC50 results, for comparison:
Query: pEC50; subject: C114 (antibody, human IgG1, kappa, V domains shown) VH: QVQLQQSGAELVRPGTSVKMSCKAAGYTFTNSWINWVKQRPGHGLEWIGDIYPGNTFPNYNEKFKGKATLTADTSSSTAYMQLSSLTSEDSAVYYCTGGYFDVWGTGTTVTVSS VL: DIVMTQSPSSLSVSAGEKVTMSCKSSQSLLNSGNQKNFLAWYQQKPGQPPKLLIFGASTRQSGVPDRFTGSGSGTDFTLTISSVQAEDLAVYYCQNDHSYPYTFGGGTKLEMKR
10.11

Do the same for C62 (antibody, human IgG1, kappa, V domains shown) VH: EVMLVESGGGLVKPGGSLKLSCAASGFSFSSYSMSWVRQTPEKRLECVATIGGVGGNTYYPDSVKGRFSISRDNAKNTLYLQMSSLRSEDTALYYCARHEDYYYYAMDYWGQGTSVTVSS VL: QIVLTQSPAIMSASPGEKVTMTCSANSTVSYIYWYQQKPGSSPRLLIYDTSNLASGVPVRFSGSGSGTSYYLTISRMEAEDAATYYCQQWSSFPFTFGSGTKLEIKR please
10.37

Do the same for C111 (antibody, human IgG1, kappa, V domains shown) VH: QVQLQQSGPELARPGASVKLSCKASGYTLTSHGISWVKQRTGQGLEWIGEIYPGSESPYYSEKFKGKATLTADKSSNIAYMQLSSLTSEDSAVYFCARSDYSDYWAMDYWGQGTSVTVSS VL: DIVMTQSQKCMSTSVGDRVSITCKASQNVRSAVAWYQQKPGQSPKTLIYLASNRHTGVPDRFTGSGSGTDFTLTITNVQSEDLADYFCLQHWNYPWTFGGGTELEIKR please
10.13

More entries:
Query: pEC50; subject: C51 (antibody, human IgG1, kappa, V domains shown) VH: QVQLQQSGAELVRPGASVTLSCKASGYTFTDYEMHWVKQTPVHGLEWIGAIDPETGGTAYNQKFKGKAILTADKSSSTAYMELRSLTSEDSAVYYCTRWITTVVATLYYFDYWGQGTTLTVSS VL: DIVMTQSQKFMSTSVGDRVSITCKASQNVRTAVAWYQQKPGQSPKALIYLASNRHTGVPDRFTGSGSGTDFTLTISNVQSEDLADYFCLQHWNYPLTFGAGTKLELKR
9.65

Do the same for C63 (antibody, human IgG1, kappa, V domains shown) VH: EVMLVESGGGLVKPGGSLKLSCAASGFIFSSYIMSWVRQTPEKRLEWVATIRGGGGNTYYLDSVKGRFIISRDNAKNNLYLQMSSLRSEDTALYYCARHEDYEWYAMDNWGQGTSVTVSS VL: QIVLTQSPAIMSASPGEKVTLTCSARSSVSYMYWYQQKPGSSPKLLIYDTSNLASGVPVRFSGSGSGTSYSLTISRMEAEDAATYYCQQWSSYPLTFGAGTKLELKR please
10.05

Do the same for C8 (antibody, human IgG1, kappa, V domains shown) VH: EVQLVASGGGLVKPGGSLKLSCAASGFTFSDYYMFWVRQTPEKRLEWVATISDGGGYIYYPDSVKGRFTISRDNDRNSLYLQMSSLKSEDTAIYYCGREDFWGQGTSVTVSS VL: DIQMTQSPSSLSASLGERVSLTCRASQDIGRSLNWLQQEPDGSVRRLIYATSRLDSGVPKRFSGSRSGSDYSLTISSLESEDFVDYYCLQYASFPYTFGGGTKLEIKR please
10.33

Do the same for C113 (antibody, human IgG1, kappa, V domains shown) VH: EVQLQQSGPELVKPGSSVKISCKASGYTFTDYNLDWMKQSHGSSLEWIGAMSPNNGATSYNQKFKGKATLTVDKSSSTAYMELRSLTSEDSAVYYCARWDSNSWYFDVWGTGTTVTVSS VL: DIVMTQSQKFMSTSVGDRVSITCKASQIVRTAVDWYQQKSGQSPKALIYSASTRHTGVPDRFTGSGSGTDFTLTIDNVQSEDLAEYFCLQHWNYPYTFGGGTKLEIKR please
9.98

Do the same for C146 (antibody, human IgG1, kappa, V domains shown) VH: EVQLQQSGPELVKPGSSVKISCEASGYTFADYNVDWVKQSHGKSLEWIGAINPNDGGTSYNQKFEGKATLTVDKSSTTVYMELRSLTSEDSAVYYCARWVNNDWYFDVWGTGTTVTVSS VL: DIVMTQSQKFMSTSVGDRVSITCKASQNVRSAVDWYQQKPGQSPKTLIHSASSRHTGVPDRFTGSGSGTDFTLTISNIQSEDLADYFCLQHWNYPYTFGGGTKLEVKR please
10.13

Do the same for C45 (antibody, human IgG1, kappa, V domains shown) VH: QVHLQQSGPDLVKPGVSVKISCKASGYTFTDYYINWVKQRPGQGLEWIGWIFPGSGTTYYNEKFKGKATLTVDKSSSTAYMLLSSLTSEDSAVYFCARDGGLRGPFDYWGQGTTLTVSS VL: DIQMTQSPSSLSASLGGKVTITCKANQDINKYIAWYQYKPGKGPRLLIHYTSTLQPDIPSRFSGSGSGRDFSFSISNLEPEDIATYYCLQYDYLYTFGGGTKLEIKR please
9.94

Do the same for C138 (antibody, human IgG1, kappa, V domains shown) VH: EVQLVESGGGLVKPGGSLKLSCAASGFTFSSYAMSWVRQTPAKRLEWVATITSGDIRTYYPDTVKGRFTISRDNAKNTLYLQMRSLRSEDTAMYYCVGHDDFHFYAMDYWGQGTSVTVSS VL: QIVLTQSPAIMSASPGEKVTMTCSASSSVSYLYWYQQKPGSSPRLLIYDTSNLASGVPVRFSGSGSGTSYSLTLSRMEAEDAATYYCQQWSSYPLTFGAGTKLELKR please
10.28
